- targetUnderTest: Aβ42 (Homo sapiens)
- Sequence (P05067 672-713): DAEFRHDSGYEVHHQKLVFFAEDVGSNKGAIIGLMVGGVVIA
- assayMethodText: Th-T (thioflavin-T) assay of Aβ42 aggregation
- Format: biochemical
- conditionDetails: Supplementary Fig. 47 source data; measurement M46 of time course
Recorded measurements of Th-T fluorescence, mean of three wells, one per entry
assayEndpoint: Th-T fluorescence, mean of three wells

INSERT INTO assay_data (molecule, assayendpoint, reportedvalue) VALUES
  ('C=C1CCC2C(C)(CC(=O)C=C(C)C)C(O)CCC2(C)C1Cc1c(O)c(C)c(C)oc1=O (stereo not drawn)', 'Th-T fluorescence, mean of three wells', 3.557),
  ('C=C1CCC2C(C)(CC(=O)C=C(C)C)C(O)CCC2(C)C1Cc1c(OC)oc(C)c(C)c1=O (stereo not drawn)', 'Th-T fluorescence, mean of three wells', 3.76),
  ('C=C1CCC2C(C)(CC(=O)C=C(C)C)C(O)CCC2(C)C1Cc1c(OC)oc(CO)c(C)c1=O (stereo not drawn)', 'Th-T fluorescence, mean of three wells', 3.545),
  ('C=C1CC[C@H]2[C@]3(C)C[C@@H](C=C(C)C)O[C@H]3CC[C@]2(C)[C@@H]1Cc1c(OC)oc(CO)c(C)c1=O', 'Th-T fluorescence, mean of three wells', 3.456),
  ('C=C1CC[C@H]2[C@]3(C)C[C@H](C=C(C)C)O[C@H]3CC[C@]2(C)[C@@H]1Cc1c(OC)oc(C)c(C)c1=O', 'Th-T fluorescence, mean of three wells', 4.159),
  ('CC(C)=CCC/C(C)=C/CC/C(C)=C/CC/C(C)=C/Cc1c(O)c(C)c(C)oc1=O', 'Th-T fluorescence, mean of three wells', 2.86),
  ('C=C1CC[C@H]2[C@]3(C)C[C@@H](C=C(C)C)O[C@H]3CC[C@]2(C)[C@@H]1Cc1c(O)c(C)c(C)oc1=O', 'Th-T fluorescence, mean of three wells', 2.668),
  ('C=C1CC[C@H]2[C@]3(C)C[C@H](C=C(C)C)O[C@H]3CC[C@]2(C)[C@@H]1Cc1c(OC)oc(CO)c(C)c1=O', 'Th-T fluorescence, mean of three wells', 3.909),
  ('C=C1CCC2C3(C)CC(C=C(C)C)OC3CCC2(C)C1Cc1c(OC)oc(C)c(C)c1=O (stereo not drawn)', 'Th-T fluorescence, mean of three wells', 3.9875);

* * *

- targetUnderTest: Aβ42 (Homo sapiens)
- assayMethodText: Th-T (thioflavin-T) assay of Aβ42 aggregation
- Assay type: biochemical
- conditionDetails: head suffix _20 (concentration 20); reading M67
assayEndpoint: Th-T fluorescence of Aβ42 (sheet Fig. 7a), mean of three wells

INSERT INTO assay_data (compound, reportedvalue) VALUES
  ('C=C1CCC2C(C)(CCC=C(C)C)C(O)CCC2(C)C1Cc1c(OC)oc(CO)c(C(=O)OC)c1=O (centres unmarked) [Compound 13]', 1.057),
  ('C=C1CCC2C(C)(CCC=C(C)C)C(O)CCC2(C)C1Cc1c(OC)oc(C)c(C(=O)OC)c1=O (centres unmarked) [Compound 14]', 2.022),
  ('C=C1CC[C@@H]2[C@](C)(CC[C@H]3O[C@H](C=C(C)C)C[C@@]23C)[C@@H]1Cc1c(OC)oc(CO)c(C(=O)OC)c1=O [Compound 21]', 0.2562),
  ('C=C1CCC2C(C)(CCC=C(C)C)C(O)CCC2(C)C1Cc1c(OC)oc(CO)c(C)c1=O (centres unmarked) [Compound 12]', 2.119),
  ('C=C1CC[C@@H]2[C@](C)(CC[C@H]3O[C@H](C=C(C)C)C[C@@]23C)[C@@H]1Cc1c(OC)oc(CO)c(C)c1=O [Compound 20]', 3.438);
